# credit: patent US20190055322A1

- assay.system: PcrV of P. aeruginosa strain PA103 (on TTSS-induced bacteria) (Pseudomonas aeruginosa strain PA103)
- assay.comment: cell-based or functional assay
Give measured % inhibition, P3X63 cytotoxicity assay, MOI 4 for each item. Keep answers brief.
I only need the number, in %, no unit after it.

Entry under review: Nanobody 3B11 (VHH) VHH: EVQLVESGGGLVQAGGSLRLSCAASGFTFDDYVIGWFRQAPGKEREGVSCISRLDGRTYYTDSVKGRFTISSDNAKNTVYLQMNSLKPEDTAVYYCALEPRYTGDYYPVHPELYDYWGQGTQVTVSS . Reported % inhibition, P3X63 cytotoxicity assay, MOI 4?
54

Entry under review: Nanobody 2B02 (VHH) VHH: EVQLVESGGGLVQPGDSLRLSCAASGRILSINNMVWYRQAPGKQRELVAHITSSGSTGYADSVKGRFTISRDNAKNTFYLQMTNLNPEDTAVYYCNCWVSSDSNAPLKNYWGQGTQVTVSS . Reported % inhibition, P3X63 cytotoxicity assay, MOI 4?
100

Entry under review: Nanobody 5H01 (VHH, also called 05H01) VHH: EVQLVESGGGLVQPGGSLRLSCAASGSTLDYYAIGWFRQAPGKEREGVSCTSNSGSTYYGGSVKGRFTASRDNAKNTVYLQMNSLRPEDTAVYYCVATIGCATLGGTLDVQRYYYRGQGTQVTVSS . Reported % inhibition, P3X63 cytotoxicity assay, MOI 4?
100

Entry under review: Nanobody 2B10 (VHH, also called 02B10) VHH: EVQLVESGGGLVQPGGSLRLSCAASGSIFSINNMGWYRQAPGKQRELVTVVTSNLITTYADSVKGRFTISRDNAKNTVYLQMNSLKPEDTAVYYCNAWARSVGSVPYSQFWGQGTLVTVSS . Reported % inhibition, P3X63 cytotoxicity assay, MOI 4?
100

Entry under review: Fab 13.37 (Fab, V domains shown) VH: QVQLVESGGGVVQPGRSLRLSCAASGFTFSSYPLHWVRQAPGKGLEWVSFISYDGSEKYYASSVKGRFTISRDNSENTLYLQMNSLRPEDTAVYYCARNRGDIYYDFTYAMDIWGQGTMVTVSS VL: DIQMTQSPSSLSASVGDRVTITCRASQSISRWVAWYQQRPGKAPNLLIYDASSLKSGVPSRFSGSGSGTEFTLTISSLQPEDIATYYCQQFWGTPYTFGQGTKLEIKR . Reported % inhibition, P3X63 cytotoxicity assay, MOI 4?
100

Entry under review: Nanobody 5E02 (VHH) VHH: EVQLVESGGGLVQPGGSLRLSCAASGITLDSIAICWFRQAPGKEREGVSCSRGSDGSTYYADSVKGRFTISRVNAKNTVYLQMNSLKPEDTAVYYCAAAPSIFYSGGYFPSGMDYWGKGTQVTVSS . Reported % inhibition, P3X63 cytotoxicity assay, MOI 4?
100

Entry under review: Nanobody 3E10 (VHH) VHH: EVQLVESGGGLVQAGGSLRLSCTASGHTFSSYTMGWFRQAPGKEREFVAAMTRSGFNTHYSDSVKGRFTISRDNTSRDNTKITMALQMNSLKPEDTAVYYCTTGRGLTSYVANFWGQGTQVTVSS . Reported % inhibition, P3X63 cytotoxicity assay, MOI 4?
94

Entry under review: Nanobody 2G09 (VHH) VHH: EVQLVESGGGLVQPGGSLRLSCAASGSFGDNYELYAMTWFRQAPGERRDFVASVTGDGSTSYADSVKDRFTISRDNAKKLMYLQMNSLKPEDTAVYYCRLLNYWGQGTLVTVSS . Reported % inhibition, P3X63 cytotoxicity assay, MOI 4?
55

Entry under review: Nanobody 7C10 (VHH) VHH: EVQLVESGGGLVQAGGSLRLSCTASGRTLSSYTMGWFRQAPGTEREFVAAMTRSGFNTYYADSVKGRFTISRDSTENTMALQMSSLKPEDTAVYYCTAGRGLTSYRADYWGQGTLVTVSS . Reported % inhibition, P3X63 cytotoxicity assay, MOI 4?
100

Entry under review: Nanobody 4G10 (VHH) VHH: EVQLVESGGGLVQAGGSLRLSCVISEDGVRNYDMGWFRQAPGKEREFVATINWSGGSTNYADSVKGRFTVSRDNAKNTMYLQMDSLKPEDTAVYYCVAAGFYNNYLRTAPNDWNDWGQGTQVTVSS . Reported % inhibition, P3X63 cytotoxicity assay, MOI 4?
100

Entry under review: Nanobody 1E11 (VHH, also called 01E11) VHH: EVQLVESGGGLVQPGGSLRLSCAASGSTRSVNPMAWFRQAPGRQREWVATISRSGYATYADSVKGRFTISGDNAKSSVYLQMNSLKPEDTAVYYCVTGTYWGQGTLVTVSS . Reported % inhibition, P3X63 cytotoxicity assay, MOI 4?
58
